assay: Toxicity in ip dosed mouse
Type: organism-based
condition-details: in vivo
outcome-measure: LD50 (mg/kg)

{"molecular-string": "COc1c(C)c([C@]2(C)O[C@H]2/C(C)=C/C(C)=C/[C@]2(C)O[C@H](C)[C@@]3(C)O[C@H]32)oc(=O)c1C", "assay-result": 4}
